All values here come from PubChem BioAssay (NCI).

System: KM20L2 colon
Assay: NCI tumour cell line growth inhibition, 48 h
MEASURED ENDPOINT: TGI

- Cc1cc(C)nc(NS(=O)(=O)c2ccc(NC(=O)c3ccc(Cl)c4c(Nc5ccc(S(=O)(=O)Nc6cc(C)on6)cc5)c5ccccc5nc34)cc2)n1: 32.6 µM
- O=c1c(C(=Nc2ccccc2)c2ccccc2)c[nH]n1-c1ccccc1: > 100 µM
- Cn1nc(N)nc1N=S(C)(C)=N: > 100 µM
- FC(F)(F)c1cccc2ns[s+]c12: > 100 µM
- Cc1c2cnccc2c(C)c2c1c1ccccc1n2CC1CO1 (stereo unspecified): 4.62 µM
- CC1=Nn2c(nnc2-c2ccc(Cl)cc2)NC(C)(C)C1: > 100 µM
- O=C1[C@H]2ON(c3ccccc3)C(c3ccc(Cl)cc3Cl)[C@H]2C(=O)N1c1ccc(Cc2ccc(N3C(=O)[C@@H]4ON(c5ccccc5)C(c5ccc(Cl)cc5Cl)[C@@H]4C3=O)cc2)cc1 (stereo partly specified): > 100 µM
- N#C/C(=C\c1c(Cl)cccc1Cl)c1ccccc1: 21.8 µM
- CSc1nc(=Nc2ccccc2)sn1-c1ccccc1: 28.4 µM
- O=C(c1ccccc1)c1nc2ccc(Cl)cc2c2c1Cc1ccccc1-2: > 100 µM
- COC(=O)C1=C(c2cc(OC)c(OC)c(OC)c2)OC(c2ccc3c(c2)OCO3)C1 (stereo unspecified): 58.2 µM
- O=[N+]([O-])c1ccc(N=Nc2c(O)[nH]c3ccc(Br)cc23)cc1: > 100 µM
- O=[N+]([O-])c1nccn1COCCI: > 100 µM
- O=C(NC1C2CC3CC(C2)CC1C3)c1ccncn1 (stereo unspecified): > 100 µM
- NC(=O)n1ncc(Cl)c(Cl)c1=O: > 100 µM
- O=C(/C=C/c1cccc([N+](=O)[O-])c1)c1cccnc1: > 67.8 µM

----------
Reported TGI is given for each of the following molecules.
Tested on: KM12 colon
Assay: NCI tumour cell line growth inhibition, 48 h
MEASURED ENDPOINT: TGI (µM)

* CCC(=C/[C@H](C)C/C=C/C(C)=C/[C@@H](C)C(=O)[C@@H](C)[C@H](O)[C@@H](C)CC)/C=C/[C@@H]1OC(=O)C=C[C@@H]1C | 5.17
* CC1=C[C@H](O)[C@@]2(C)[C@@H]([C@@H]1C)[C@H]1CC[C@@H]3[C@@]4(C)CC[C@H](O)C(C)(C)[C@@H]4CC[C@@]3(C)[C@]1(C)C[C@@H]2O | 39.2
* Cn1c(-c2c(N)n(Cc3ccc(C(F)(F)F)cc3)c3nc(C#N)c(C#N)nc23)nc2ccccc21 | 38.2

----------
Reported TGI is given for each of the following compounds.
Tested on: M19-MEL melanoma
Assay: NCI tumour cell line growth inhibition, 48 h
MEASURED ENDPOINT: TGI (µM)

- CCC1(O)C(=O)OCc2c1cc1n(c2=O)Cc2cc3ccc(CO)cc3nc2-1 (centres undefined): 54
- CC(=O)NC1=C(C)C(=O)c2c(nc3n2CCC3OC(=O)CCl)C1=O (centres undefined): 26.3
- CCC[CH2][Sn]([CH2]CCC)([O]C(=O)c1ccc(C)c(N)c1)[O]C(=O)c1ccc(C)c(N)c1: 1.28
- Cc1cc(C)nc(NS(=O)(=O)c2ccc(NC(=O)c3ccc(Cl)c4c(Nc5ccc(S(=O)(=O)Nc6cc(C)on6)cc5)c5ccccc5nc34)cc2)n1: 39.7
- CSc1nc(SC)c2cnn(CC3CO3)c2n1 (centres undefined): 27.1
- O=C1C(c2ccccc2)=[N+]([O-])c2cc([N+](=O)[O-])c(/C(Cl)=C/c3ccccc3)cc21: 28.9

----------
Test system: UACC-62 melanoma
Assay: NCI tumour cell line growth inhibition, 48 h
Reported TGI is given for each of the following molecules.
MEASURED ENDPOINT: TGI

- O=C1CCC(c2nc3cc(Cl)ccc3o2)C(=O)N1 (configuration not stated): > 100 µM
- CSc1nc(=Nc2ccccc2)sn1-c1ccccc1: 18 µM
- CN(C)CCNC(=O)c1cnn(C)c1[N+](=O)[O-]: > 100 µM
- CSc1nc(SC)c2cnn(CC3CO3)c2n1 (configuration not stated): 33.5 µM
- N#Cc1ccc(Sc2ccccc2)cc1C#N: > 100 µM
- COC(=O)CSC1CC(=O)c2c(Cl)sc(Cl)c21 (configuration not stated): > 100 µM
- Cc1nc2ccccc2c(=O)n1NC(=S)Nc1ccccc1: > 100 µM
- Oc1ccc(-c2cn3ccsc3n2)cc1O: 43.9 µM
- COC(=O)C([C@H]1CC[C@H](OCc2ccccc2)[C@@]1(O)COCc1ccccc1)C(C)(O)CCc1ccccc1 (some centres not stated): 26.6 µM
- Oc1ccc2c(c1)OCC1c3ccccc3OC21 (configuration not stated): > 100 µM
- OC1(c2ccccc2)CCCCCCCCC(O)(c2ccccc2)CCCCCCCC1 (configuration not stated): > 100 µM
- C/C(CC(=O)Nc1ccc(C)c(C)c1)=N\NC(N)=S: > 100 µM

----------
System: TK-10 renal
Assay: NCI tumour cell line growth inhibition, 48 h; in the data active = GI50 below about 0.43 µM; inactive = the rest
Classes used: YES (active), NO (inactive)

- CC(=O)Nc1ccc2c(C3=C(c4cn(C)c5ccccc45)C(=O)NC3=O)cn(C)c2c1: NO
- COc1ccc2c(c1OC)CO[C@@H]2[C@H]1c2c(c(Br)c3c(c2OC)OCO3)CCN1C: NO
- Oc1ccc(CCl)c2cccnc12: NO
- COc1cc(NC(=O)c2ccc(C(F)(F)F)nc2Nc2cc(Cl)ccc2C)cc(OC)c1OC: NO
- COc1cc(OC)cc(C2C(C#N)=C(N)Oc3c2ccc2ccc(O)cc32)c1 (stereo unspecified): NO
- Oc1ccc(-c2cn3ccsc3n2)cc1O: NO
- Cc1ccc(C)c(COc2cc(NC(=O)c3ccc4c(c3)OCO4)ccc2N(C)S(C)(=O)=O)c1: YES
- [N-]=[N+]=NCCCn1c2c(c3ccccc3c1=O)C(=O)c1cc(Br)ccc1-2: NO
- N.N.NCCCCCCN.O=C([O-])CCl.O=C([O-])CCl.O=C([O-])CCl.O=C([O-])CCl.[Pt+4].[Pt+4]: NO
- O=C(Nc1ccc(Oc2cccc(Cl)c2)c(Cl)c1)c1cnccn1: NO
- CCn1cc(C(=O)N/N=C/c2ccc(Br)cc2)c(=O)c2cc(F)c(N3CCNC(C)C3)c(F)c21 (stereo unspecified): NO
- O=C(NC1CCC(Br)CC1)C1CCCC(S(=O)(=O)NC2CCCCC2)C1 (stereo unspecified): NO
- FC(F)(F)CNc1nccc(-c2cnn3ncccc23)n1: NO
- Cn1cc(C2=C(c3c4n(c5ccccc35)CCN(C(N)=S)C4)C(=O)NC2=O)c2ccccc21: NO
- ClC1=C(Cl)C(Cl)=C(Cl)C1=Cc1ccccc1: NO
- CCCCCCCCCCCC[C@H](O)[C@H]1CC[C@H]([C@H](O)CCCC[C@H](O)CCCCC[C@@H](O)CC2=C[C@H](C)OC2=O)O1: NO

----------
Tested on: HOP-18 NSCLC
Assay: NCI tumour cell line growth inhibition, 48 h
MEASURED ENDPOINT: TGI

* O=C1OC(CC(=O)c2ccccc2Cl)C(Cl)=C1Cl (configuration not stated) | > 100 µM
* COc1cc2c(cc1OC)C(Cc1ccc(Oc3cc(CC4c5cc(OC)c(OC)cc5CCN4C)ccc3O)cc1)N(C)CC2 (configuration not stated) | 76.6 µM
* Cn1nc(N)nc1N=S(C)(C)=N | > 100 µM
* COc1ccccc1-n1c(C)nc2ccccc2c1=O | > 100 µM
* COc1cc2c(cc1OC)[Se]c1cc(OC)c(OC)cc1[Se]2 | > 100 µM
* O=C(c1ccccc1)c1nc2ccc(Cl)cc2c2c1Cc1ccccc1-2 | > 100 µM
* COCCCCCC(=O)CP(=O)(OC)OC | > 100 µM
* Cc1c2nc3ccccc3sc-2cc(=O)c1C | > 100 µM
* N#Cc1ccc(Sc2ccccc2)cc1C#N | > 100 µM
* O=C(/C=C/c1cccc([N+](=O)[O-])c1)c1cccnc1 | > 31.2 µM
* O=C1[C@H]2ON(c3ccccc3)C(c3ccc(Cl)cc3Cl)[C@H]2C(=O)N1c1ccc(Cc2ccc(N3C(=O)[C@@H]4ON(c5ccccc5)C(c5ccc(Cl)cc5Cl)[C@@H]4C3=O)cc2)cc1 (some centres not stated) | > 100 µM
* CSc1nc(SC)c2cnn(CC3CO3)c2n1 (configuration not stated) | > 100 µM
* CCOCCOc1ccc(OCCOCC)cc1 | 61.3 µM
* O=[N+]([O-])c1ccc(N=Nc2c(O)[nH]c3ccc(Br)cc23)cc1 | 40.6 µM
* CCC1(O)C(=O)OCc2c1cc1n(c2=O)Cc2cc3ccc(CO)cc3nc2-1 (configuration not stated) | > 93.9 µM
* O=C1CCC(c2nc3cc(Cl)ccc3o2)C(=O)N1 (configuration not stated) | > 100 µM
* FC(F)(F)c1cccc2ns[s+]c12 | > 100 µM
